Assay Summary: yeast display, Sf9 membrane polyspecificity reagent, FACS + sequencing; frameworks hold sequencing errors
Assay Readout: polyreactivity (PSR sort gate)

Recorded polyreactivity (PSR sort gate), per entry:
Field polyreactivity (PSR sort gate) (entry QVQLVESGGGLVQAGGSLRLSCAASGRTFYFNAMGWYRQAPRKESELVAAISSGASTYYADSVKGRFTISRDNAKNTVNLQMISLKPEDTAVYYCAAEFWTQWSGYEYWGQGTQVTVSS ) reads high polyreactivity

Field polyreactivity (PSR sort gate) (entry QVQLVESGGGLVQAGGSLRLSCAASGRTLGKYVMGWYRQAPGKERELVAAISVRGGTTYYADSVKGRFTISRDNAKYTVYLQMNSLKPEDTAVYYGNKAYYVWYGWGQGTQVTVSS ) reads high polyreactivity

Field polyreactivity (PSR sort gate) (entry QDQLVESGGGLVQAGGSLRLSCAASGSIFWYYGMGWYRQAPGKERELVAAISSGGSTNYADSVKGRFAISRDNAKNTVYLQMNSLKPEDTAVYYCAVRFTFPRYPASYSRYYYWGQGTQVTVSS ) reads high polyreactivity

Field polyreactivity (PSR sort gate) (entry QVQLVESGGGLVQAGGSLRLSCAASGSTFYGYGMGWYRQAPGKEWELVAAITGSGDTTYYADSVKGRFTISRDNAKNTVYLQMNSLKPEDTAVYYCNARWHAEYDYWGQGTQVTVSS ) reads low polyreactivity

Field polyreactivity (PSR sort gate) (entry QVQLVESRGGLVQAGGSLRLSCAASGLIFASYAMGWNRQAPGKERELVAAISWSGGSTYYADSVKGRFTISRDNAKNTVYLQMNSLKPEDTAVYYCAAKRYAYGSLDYWGQGTQLTVSS ) reads high polyreactivity

Field polyreactivity (PSR sort gate) (entry QVQLVESGGGLVQAGGSLRISSAASGPTFVPNAMGSYRQAPGKERELVATITSGGNTYYADSVKGRFTISRDNAKNTVYLQMNSLKPEDTAVYYCNRDWIYWGPRRNSGEYWGQGTQVTVSS ) reads low polyreactivity

Field polyreactivity (PSR sort gate) (entry QVQLVESGGGLVQAGGSLLLSCAASGFTFDYYAMGWYRQAPGKERELVAAITWSGGSTYYADSVKGRFTISRDNAKNTVYLQMNSLKPEDTAVYYCNAYYYHLYRGSTSYDYWGQGTQVTVSS ) reads low polyreactivity

Field polyreactivity (PSR sort gate) (entry QVQLVESGGGLVQAGGSLRLSCAASGSIFPYYVMGWYRQAPGKERELVAAISTSDGSTYADSVKGRFTISRDNAKNTVYLQMNSLKPEDTAVYYCAVANVYYEGYDYWGQGTQVTVSS ) reads low polyreactivity

Field polyreactivity (PSR sort gate) (entry QVQHVESGGGLVQAGGSLRLTCAASGRIYASNSKGWYRQETGKERELFATSRVGGGSTYYADSVKGRFTISRDNAKNTVYLQRNSLKQEDTAVYYWAASFRDDFPQRLDFWGQGTQVTVSS ) reads low polyreactivity

Field polyreactivity (PSR sort gate) (entry QVQLVESGGRLVQAGGRLRLSCAASGSIFMKNAMGWYRPAHGKERELVADITRSGDRTYYADSVKGRFTISRDNAKNTVYLQMNSLKPEDTAVYYCAKYYVWPRYGYSGQGTQVTVSS ) reads high polyreactivity

Further cases:
Field polyreactivity (PSR sort gate) (entry QVQRVESGGGLVQAGGSLRLSCAASGITFGPYAMGWYRQAPGKERELVAAITGSGGITYYADSVKGRFTISRDNAKNTVYLQMNSLKPEDTAVYYCAAEYPYVYGTYSDSYTEYDYWGQGTQLTVSS ) reads low polyreactivity

###

Assay Summary: yeast display, Sf9 membrane polyspecificity reagent, FACS + sequencing; frameworks hold sequencing errors
Assay Readout: polyreactivity (PSR sort gate)

Recorded polyreactivity (PSR sort gate), per entry:
Field polyreactivity (PSR sort gate) (entry QVQLVESGGGLVQAGGSLRLSCAASGIIFAGNAMGWYRQAPGKERELVAAITRSTGSTYYADSVKGRFTISRDNAKNTVYLLMNSLKPEDTEVYYCNAGHFAHHHGYYRSKYDYWGQGTQVTVSS ) reads low polyreactivity

Field polyreactivity (PSR sort gate) (entry QVQLVESGGGLVQAGGSLRLSCAASGRTFAFYTLGWYRQAPGKERELVAAITRNGSTSYADSVKGRFTISRDNAKNTVFLQMNRLKPEDTAVYYCATVGYPYTLWHQMDYWGQGTQVTVSS ) reads low polyreactivity

Field polyreactivity (PSR sort gate) (entry QVQLVESGGGLVQAGGSLRLSCAASGLTFAWYTMGWYRQAPGKERELVADIDQSGSTYYADSVKGRFTISRDNAKNTVYLQMNSLKPEDTAVYYCNAYWSNFLYPFDYWGQGTQVTVSS ) reads high polyreactivity

Field polyreactivity (PSR sort gate) (entry QVQLVESGGGVVQAGGSLRLSCAASGRIISYNAMGWYRQAPGKERELVAAISWGGGSTYYADSVKGRFTISRDNAKNTVYLQMNSLKPEDTAVSYCAKGWYRIKRNDYWGQGTQVTVSS ) reads low polyreactivity

Further cases:
Field polyreactivity (PSR sort gate) (entry QVQLVESGGGLVQAGGSLRLSCAASGRTFYYYAMAWYRPAPGKERELVAAISWSGGRTYYADSVKGRFTISRDNAKNTVYLLMNSLIPVDTAVYYCNAEPPRGYTVSSGGEMDYWGQGTQVTVSS ) reads low polyreactivity

Field polyreactivity (PSR sort gate) (entry QVHLVESGGGLVQAGGSLRLSCAASGRIFTYYAMAWYRQAPGKEREMVAGITGSGASTYYADSVKGRFTISRDNAKNTVYLQMNSLKPEDTAVYYCNAPYVIRPFRGRYDYWGQGTQVTVSS ) reads high polyreactivity

Field polyreactivity (PSR sort gate) (entry QVQLVESGGGLVQAGGSLRLSCAASGSIFYRYAMGWYRQAPGKERELVAAISTAGSTNYADSVKGRFTISRDNAKNTVYLQINSPKPEDTAVYYCAAKSYRGRTQRSYGYWGQGTQVTVSS ) reads low polyreactivity

Field polyreactivity (PSR sort gate) (entry QVQLVESGGGLVQAGGSLRLSCAASGRIFKGYAIGWYRLAPGKERELVASITWRGGTTYYADSVKGRFTISRDNAKNTVYLQMNSLKPEDTAVYYCATTRYPRSYQEFGYWGQGTQVTVSS ) reads high polyreactivity

Field polyreactivity (PSR sort gate) (entry QVQLVESCGGLVQAGGSLRISCAASGLTIRYYAMGWYRHAPWKERELVAAISWSGGSTYYADSVKGRFTISRDNAKNTVYLLMNILKPEDTAVYYCNTVGRSSSLSVFLIGYGYWGQGTQVNVSS ) reads high polyreactivity

Field polyreactivity (PSR sort gate) (entry QVHLQESGCGLVQAGGSLRLSCAPSGSIFVSVTMGWYRQAPGKERELVASIGRGSTTNHADSVKGRFTISRDNAKNIVYLLMNSLKPEDTAVYFCAALESYGKYHGYWGQGTKVTVSS ) reads low polyreactivity

Field polyreactivity (PSR sort gate) (entry QVQLVESGGGLVQAGGSLRLSCAASGITFGIYVMGWYRPAPGKEWELVATISRSDDNTYYADSVKGRFTISRDNAKNTVYLQMNSLKPEDTAVYYCAAYWYDLYWDYYTFDYWGQGTQVTVSS ) reads low polyreactivity

Field polyreactivity (PSR sort gate) (entry QVQLVESGGGLVQAGGSLRLSCAASGSIFYRNAMGWYRQAPGKERELVAGITWRGGRTYYADSVKGRFTISRDNAKNTVYLQMNSLKPEDTAVYYCAATYYWYGHPSRRYDYWGQGTQVTVSS ) reads high polyreactivity

###

Assay Summary: yeast display, Sf9 membrane polyspecificity reagent, FACS + sequencing; frameworks hold sequencing errors
Assay Readout: polyreactivity (PSR sort gate)

Recorded polyreactivity (PSR sort gate), per entry:
Field polyreactivity (PSR sort gate) (entry QVQLVESGGGLVQAGGSLRLSCAASGSIFGYYAMGWSRQAPGKERELVASISSTGSTYYADSVKGRFTISRDNAKNTVSLQMNSLKPEDTAVYYCAADTLIFPWGFESWGQGTQVTVSS ) reads high polyreactivity

Field polyreactivity (PSR sort gate) (entry QVQLVESGGGLVQAGGSLRLSCAASGRTFRVYAIGWYRQAPGKEREFVATISVRGGSTYYADSVKGRFTISRDNAKNNVYLQMNSLKPEDTAVYFCAADSYPYVYALYDYWGQGTQVTVSS ) reads low polyreactivity

Field polyreactivity (PSR sort gate) (entry QFQLVESGGGLVQAGGSLRLSCAASGSIFYRNAMGWYRQAPGKERELVAAISRRGGSTYYADSVKGRFTISRDNAKNTVYLQMNSLKPEDTAVYYCATDGSTSKLVTVAYDYWGQGTQVTVSS ) reads high polyreactivity

Field polyreactivity (PSR sort gate) (entry QVQLVESGGGLVQAGGSLRLSCAASGSIFDLYTMGWYRQAPGTERELVAAISRSGGSTYYADSVKGRFTISRDNAKNTVYLQMNSLKPEDTAVYYCAARGPYRPPHGDAYYTYGYWGQGTQVTVSS ) reads high polyreactivity

Field polyreactivity (PSR sort gate) (entry QVQLVESGGGLVQAGCSLRLSCAASGRIFRRYAMGWYRQAPGKERELVAAITSGGGSTYYADSVKGRFTISRDNAKNTVYLQMNSLKPEDTAVYYCNKSSWEFVKGKYGYWGQGTQVTVSS ) reads low polyreactivity

Field polyreactivity (PSR sort gate) (entry QVQLVESGGGLVQEGGRLRLSCAASGRIISINAMGWYRQAPGKERELVAAITRGGTTYADSVKGRFTISRDIAKNTVYLHMNRLKPEDPAVYYCNARTGRSPSGFRYWGQGTQVTVSS ) reads high polyreactivity

Now turn to the next sequence.
Field polyreactivity (PSR sort gate) (entry QVQLVESGGGLVQAGGSLRLSCAASGSTFGLYARGWYRQAPGKERELVAAISGGRTYYADSVKGRFTISRDNAKNTVYLQMNSLKPEDTAVYYCAADYNYYWGQGTQVTVSS ) reads high polyreactivity
